What follows is a record of pKi for human V1a receptor (Homo sapiens).
Scale: pKi equals -log10([C]), with [C] in mol/L.

# count of solved cases: 6
1. CN(C)CCn1cc(C(=O)N2CCC3(CC2)COc2ccccc23)c2ccc(Cl)cc21 : 8.30
2. Cc1c(C(=O)N2CCC3(CC2)OCc2ccccc23)c2ccccc2n1Cc1ccc(C#N)cc1 : 8.23
3. CN(C)CCn1cc(C(=O)N2CCC3(CC2)OCc2ccccc23)c2ccc(Cl)cc21 : 9.00
4. O=C(c1cn(CCn2cccc2)c2cc(Cl)ccc12)N1CCC2(CC1)COc1ccccc12 : 7.88
5. O=C(c1cn(CCNO)c2cc(Cl)ccc12)N1CCC2(CC1)OCc1ccccc12 : 8.37
6. Cc1cc(Cn2cc(C(=O)N3CCC4(CC3)OCc3ccccc34)c3ccc(Cl)cc32)ccn1 : 8.55

Form field - read-out: pKi; system: human V1a receptor (Homo sapiens); submitted item: O=C(c1cn(CC2CO2)c2cc(Cl)ccc12)N1CCC2(CC1)OCc1ccccc12 (centres unmarked)
Sequence (P37288 whole entry): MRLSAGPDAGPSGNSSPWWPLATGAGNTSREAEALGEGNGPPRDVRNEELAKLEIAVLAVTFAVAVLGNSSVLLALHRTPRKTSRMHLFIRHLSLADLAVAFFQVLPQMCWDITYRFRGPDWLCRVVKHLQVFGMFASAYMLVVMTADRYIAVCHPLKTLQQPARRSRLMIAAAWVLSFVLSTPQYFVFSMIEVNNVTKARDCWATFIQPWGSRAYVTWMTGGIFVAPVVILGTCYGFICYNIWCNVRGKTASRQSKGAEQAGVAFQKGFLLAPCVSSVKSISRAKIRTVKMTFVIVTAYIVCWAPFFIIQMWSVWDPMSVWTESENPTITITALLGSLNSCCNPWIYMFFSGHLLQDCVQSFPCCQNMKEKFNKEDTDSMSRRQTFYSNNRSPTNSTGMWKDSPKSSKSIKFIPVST
8.43

Form field - read-out: pKi; system: human V1a receptor (Homo sapiens); submitted item: "Cc1c(C(=O)N2CCC3(CC2)OC(=O)c2c(F)cccc23)c2ccccc2n1Cc1ccccc1"
7.95

Form field - read-out: pKi; system: human V1a receptor (Homo sapiens); submitted item: "O=C(c1c[nH]c2cc(Cl)ccc12)N1CCC2(CC1)OCc1ccccc12"
8.37

Form field - read-out: pKi; system: human V1a receptor (Homo sapiens); submitted item: "O=C1OC2(CCN(C(=O)c3cn(Cc4cc(F)cc(F)c4)c4ccccc34)CC2)c2ccc(F)cc21"
8.34

Form field - read-out: pKi; system: human V1a receptor (Homo sapiens); submitted item: "O=C1OC2(CCN(C(=O)c3cn(CC4(F)COC4)c4cc(Cl)ccc34)CC2)c2ccccc21"
8.77

----------
What follows is a record of pKi for human V1a receptor (Homo sapiens).
Scale: pKi equals -log10([C]), with [C] in mol/L.

1. CN1CCN(C(=O)Cn2cc(C(=O)N3CCC4(CC3)OC(=O)c3cc(F)ccc34)c3ccc(Cl)cc32)CC1 [Example 114] : 8.89
2. CN1CCn2c(c(C(=O)N3CCC4(CC3)OCc3ccccc34)c3ccccc32)C1 [Example 276] : 7.92
3. O=C(c1cn(-c2ccccn2)c2cc(Cl)ccc12)N1CCC2(CC1)OCc1ccccc12 [Example 227] : 8.42
4. O=C1OC2(CCN(C(=O)c3cn(CCC4CCOCC4)c4cc(Cl)ccc34)CC2)c2ccccc21 [Example 196] : 8.85
5. O=C(c1cn(CC2(F)COC2)c2cc(Cl)ccc12)N1CCC2(CC1)OCc1ccccc12 [Example 243] : 8.85
6. O=C(Cn1cc(C(=O)N2CCC3(CC2)OC(=O)c2cc(F)ccc23)c2ccc(Cl)cc21)c1cccc(F)c1 [Example 144] : 8.70
7. Cc1c(C(=O)N2CCC3(CC2)OC(=O)c2ccc(OCCO)cc23)c2ccccc2n1Cc1ccccc1 [Example 122] : 8.28
8. O=C(c1cn(CCN2CCOCC2)c2cc(Cl)ccc12)N1CCC2(CC1)COc1ccccc12 [Example 84] : 8.44
9. NC(=O)Cn1cc(C(=O)N2CCC3(CC2)OCc2ccccc23)c2ccc(Cl)cc21 [Example 250] : 8.39
10. O=C(Cn1cc(C(=O)N2CCC3(CC2)COc2ccccc23)c2ccc(Cl)cc21)N1CCCCC1 [Example 87] : 8.46

Value lookup for pKi; key = Cc1cc(Cn2cc(C(=O)N3CCC4(CC3)OCc3ccccc34)c3ccc(Cl)cc32)no1 [Example 236]
8.77

Value lookup for pKi; key = O=C1OC2(CCN(C(=O)c3cn(Cc4cccc(F)c4)c4cc(Cl)ccc34)CC2)c2ccc(Br)cc21 [Example 151]
8.32

Value lookup for pKi; key = Cc1c(C(=O)N2CCC3(CC2)OCc2ccccc23)c2ccccc2n1Cc1cc(F)cc(F)c1 [Example 52]
8.68

Value lookup for pKi; key = O=C1OC2(CCN(C(=O)c3cn(Cc4ccccn4)c4cc(Cl)ccc34)CC2)c2ccccc21 [Example 180]
8.82

Value lookup for pKi; key = CC(C)(C)OC(=O)N1CCn2c(c(C(=O)N3CCC4(CC3)OCc3ccccc34)c3ccccc32)C1 [Example 274]
7.60

Value lookup for pKi; key = O=C1OC2(CCN(C(=O)c3cn(Cc4ccncc4)c4cc(Cl)ccc34)CC2)c2ccc(F)cc21 [Example 166]
8.62
